assay.target: Beta-lactamase (Bacillus licheniformis)
Sequence (P00808 whole entry): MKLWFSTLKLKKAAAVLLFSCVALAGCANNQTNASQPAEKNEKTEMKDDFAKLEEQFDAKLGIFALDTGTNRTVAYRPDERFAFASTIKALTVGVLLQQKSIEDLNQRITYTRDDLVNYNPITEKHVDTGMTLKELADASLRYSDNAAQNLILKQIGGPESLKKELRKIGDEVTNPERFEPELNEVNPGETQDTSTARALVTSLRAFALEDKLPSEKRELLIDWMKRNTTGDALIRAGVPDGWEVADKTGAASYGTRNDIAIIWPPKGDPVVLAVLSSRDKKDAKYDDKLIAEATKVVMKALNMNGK
procedure.text: Compound was tested for inhibition of Beta-lactamase from Bacillus licheniformis 749/C

- molecule: "C[C@]1(C=CC#N)[C@H](C(=O)O)N2C(=O)C[C@H]2S1(=O)=O [Ro-481220]"
  assay.target: "Beta-lactamase (Bacillus licheniformis)"
  IC50 [nM]: 320

---

Consider the following compounds and their measured IC50 readings.
assay.target: Beta-lactamase L1 (Stenotrophomonas maltophilia, UniProt P52700)
Sequence (P52700 whole entry): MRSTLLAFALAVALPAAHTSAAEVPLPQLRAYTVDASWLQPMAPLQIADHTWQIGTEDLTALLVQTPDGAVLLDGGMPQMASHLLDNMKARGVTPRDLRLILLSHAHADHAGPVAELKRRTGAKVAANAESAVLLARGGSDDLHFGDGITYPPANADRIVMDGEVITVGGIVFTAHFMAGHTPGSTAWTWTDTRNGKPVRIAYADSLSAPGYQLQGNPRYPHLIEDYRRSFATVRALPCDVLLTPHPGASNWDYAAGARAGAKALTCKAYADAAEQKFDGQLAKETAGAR
procedure.text: Compound was tested for inhibition of Beta-lactamase from Xanthomonas maltophila 328

- sample.smiles: "C[C@]1(C=CC#N)[C@H](C(=O)O)N2C(=O)C[C@H]2S1(=O)=O"
  IC50 / µM: 24
- sample.smiles: "C[C@]1(Cn2ccnn2)[C@H](C(=O)O)N2C(=O)C[C@H]2S1(=O)=O"
  IC50 / µM: 4000

---

assay.target: Beta-lactamase (Pseudomonas aeruginosa (strain ATCC 15692 / PAO1 / 1C / PRS 101 / LMG12228))
Sequence (P24735 whole entry): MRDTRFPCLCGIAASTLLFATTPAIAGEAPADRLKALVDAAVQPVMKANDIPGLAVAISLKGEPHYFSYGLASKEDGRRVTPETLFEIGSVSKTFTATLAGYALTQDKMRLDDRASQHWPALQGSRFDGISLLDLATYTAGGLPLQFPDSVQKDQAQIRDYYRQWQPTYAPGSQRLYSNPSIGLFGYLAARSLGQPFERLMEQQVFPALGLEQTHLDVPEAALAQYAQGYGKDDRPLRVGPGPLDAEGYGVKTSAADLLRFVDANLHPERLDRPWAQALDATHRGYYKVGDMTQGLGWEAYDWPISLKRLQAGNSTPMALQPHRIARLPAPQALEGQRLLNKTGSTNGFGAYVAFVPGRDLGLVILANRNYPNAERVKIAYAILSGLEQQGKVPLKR
procedure.text: Compound was tested for inhibition of Beta-lactamase from Pseudomonas aeruginosa MK-1184
pIC50: −log10 of the molar value.

- sample.smiles: "C[C@]1(C=CC#N)[C@H](C(=O)O)N2C(=O)C[C@H]2S1(=O)=O"
  pIC50: 5.71

---

procedure.text: Compound was tested for inhibition of TEM-1, class A of beta-lactamases.
Format: functional, Escherichia coli

- sample.smiles: "C[C@]1(/C=C/c2nnco2)[C@H](C(=O)[O-])N2C(=O)C[C@H]2S1(=O)=O.[Na+]"
  IC50, µM: 12
- sample.smiles: "C[C@]1(/C=C/COC(N)=O)[C@H](C(=O)O)N2C(=O)C[C@H]2S1(=O)=O"
  IC50, µM: 9.1
- sample.smiles: "CC(=O)/C=C\\[C@@]1(C)[C@H](C(=O)O)N2C(=O)C[C@H]2S1(=O)=O"
  IC50, µM: 10
- sample.smiles: "C[C@]1(C=CC(N)=O)[C@H](C(=O)O)N2C(=O)C[C@H]2S1(=O)=O"
  IC50, µM: 13

---

assay.target: Beta-lactamase SHV-1 (Escherichia coli)
Sequence (P0AD63 22-286 limits assumed): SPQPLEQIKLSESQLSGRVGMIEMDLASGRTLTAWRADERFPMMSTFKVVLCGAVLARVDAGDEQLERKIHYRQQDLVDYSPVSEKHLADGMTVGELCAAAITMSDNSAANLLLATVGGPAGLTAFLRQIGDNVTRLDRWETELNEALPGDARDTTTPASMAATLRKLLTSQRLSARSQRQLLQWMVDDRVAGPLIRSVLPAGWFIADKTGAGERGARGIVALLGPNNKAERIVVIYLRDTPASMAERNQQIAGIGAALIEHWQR
procedure.text: Compound was tested for inhibition of Beta-lactamase from SHV-2
observed.property: IC50 (nM)

- sample.smiles: "C[C@]1(C=CC#N)[C@H](C(=O)O)N2C(=O)C[C@H]2S1(=O)=O"
  measured.number: 540

---

assay.target: Beta-lactamase (Pseudomonas aeruginosa (strain ATCC 15692 / PAO1 / 1C / PRS 101 / LMG12228))
procedure.text: Compound was tested for inhibition of Pseudomonas aeruginosa 18SH, class C of Beta-lactamase
pIC50: −log10 of the molar value.
observed.property: pIC50

- sample.smiles: "C[C@]1(/C=C/C[n+]2ccccc2)[C@H](C(=O)O)N2C(=O)C[C@H]2S1(=O)=O"
  observed.property: "pIC50"
  measured.number: 4.12
- sample.smiles: "C[C@]1(/C=C\\c2ccccn2)[C@H](C(=O)[O-])N2C(=O)C[C@H]2S1(=O)=O.[Na+]"
  observed.property: "pIC50"
  measured.number: 4.82
- sample.smiles: "C[C@]1(/C=C\\c2cncs2)[C@H](C(=O)[O-])N2C(=O)C[C@H]2S1(=O)=O.[Na+]"
  observed.property: "pIC50"
  measured.number: 5.05
- sample.smiles: "C[C@]1(/C=C/c2cncs2)[C@H](C(=O)O)N2C(=O)C[C@H]2S1(=O)=O"
  observed.property: "pIC50"
  measured.number: 6.27
- sample.smiles: "CCOC(=O)/C=C\\[C@@]1(C)[C@H](C(=O)O)N2C(=O)C[C@H]2S1(=O)=O"
  observed.property: "pIC50"
  measured.number: 4.82
